Just for reference, ChEMBL document CHEMBL1132954 is where these values come from.

- ASSAY EXPLANATION: Hill coefficient at 50% saturation in the presence of effector
VALUE TYPE: Hill coefficient (n50)

COMPOUND: Cc1cc(Cl)cc(NC(=O)Cc2ccc(OC3(C(=O)O)CCCC3C)cc2)c1 (stereo not given)
Hill coefficient (n50): 2.4
//
COMPOUND: CCC(C)(Oc1ccc(CC(=O)Nc2ccc3c(c2)CCC3)cc1)C(=O)O (stereo not given)
Hill coefficient (n50): 2.3
//
COMPOUND: CCC(Oc1ccc(CC(=O)Nc2cc(C)cc(C)c2)cc1)C(=O)O (stereo in doubt; 32)
Hill coefficient (n50): 2.7
//
COMPOUND: CC1CCCC1(Oc1ccc(CC(=O)Nc2ccc3c(c2)CCC3)cc1)C(=O)O (stereo not given)
Hill coefficient (n50): 2.6
//
COMPOUND: CC1CCC(Oc2ccc(CC(=O)Nc3ccc4c(c3)CCC4)cc2)(C(=O)O)C1 (stereo not given)
Hill coefficient (n50): 2.6
//
COMPOUND: Cc1cc(C)cc(NC(=O)Cc2ccc(OC3(C(=O)O)CCCC(C)C3)cc2)c1 (stereo not given)
Hill coefficient (n50): 2.5
//
COMPOUND: CCC(Oc1ccc(CC(=O)Nc2cc(C)cc(Cl)c2)cc1)C(=O)O (stereo not given)
Hill coefficient (n50): 2.6
//
COMPOUND: COCC(C)(Oc1ccc(CC(=O)Nc2cc(C)cc(C)c2)cc1)C(=O)O (stereo not given)
Hill coefficient (n50): 2.4
//
COMPOUND: CCCC(Oc1ccc(CC(=O)Nc2cc(C)cc(C)c2)cc1)C(=O)O (stereo not given)
Hill coefficient (n50): 2.5
//
COMPOUND: CCCCC(Oc1ccc(CC(=O)Nc2cc(C)cc(C)c2)cc1)C(=O)O (stereo not given)
Hill coefficient (n50): 2.5
//
COMPOUND: CCC(Oc1ccc(CC(=O)Nc2ccc3c(c2)CCC3)cc1)C(=O)O (stereo not given)
Hill coefficient (n50): 2.6
//
COMPOUND: CCC(C)(Oc1ccc(CC(=O)Nc2cc(C)cc(C)c2)cc1)C(=O)O (stereo in doubt; 10)
Hill coefficient (n50): 2.4
//
COMPOUND: Cc1cc(C)cc(NC(=O)Cc2ccc(OC(F)C(=O)O)cc2)c1 (stereo not given)
Hill coefficient (n50): 2.5
//
COMPOUND: CC(C)(Oc1ccc(CC(=O)Nc2ccc3c(c2)CCC3)cc1)C(=O)O
Hill coefficient (n50): 2.6
//
COMPOUND: Cc1cc(C)cc(NC(=O)Cc2ccc(O[C@@]3(C(=O)O)CCO[C@@H]3C)cc2)c1
Hill coefficient (n50): 2.8
//
COMPOUND: CCC(Oc1ccc(CC(=O)Nc2cc(C)cc(C)c2)cc1)C(=O)O (single isomer, unassigned; (+))
Hill coefficient (n50): 2.7
//
COMPOUND: CCC(C)(Oc1ccc(CC(=O)Nc2cc(C)cc(C)c2)cc1)C(=O)O (stereo in doubt; (-)-10)
Hill coefficient (n50): 2.3
//
COMPOUND: Cc1cc(Cl)cc(NC(=O)Cc2ccc(OC(C)C(=O)O)cc2)c1 (stereo not given)
Hill coefficient (n50): 2.6
//
COMPOUND: Cc1cc(Cl)cc(NC(=O)Cc2ccc(OC(C)(C)C(=O)O)cc2)c1
Hill coefficient (n50): 2.4
//
COMPOUND: CCC(C)(Oc1ccc(CC(=O)Nc2cc(C)cc(Cl)c2)cc1)C(=O)O (stereo not given)
Hill coefficient (n50): 2.5

---

- TARGET: Hemoglobin HbA (Homo sapiens) (UniProt P69905+P68871)
- Sequence (P68871 2-147 partner limits assumed): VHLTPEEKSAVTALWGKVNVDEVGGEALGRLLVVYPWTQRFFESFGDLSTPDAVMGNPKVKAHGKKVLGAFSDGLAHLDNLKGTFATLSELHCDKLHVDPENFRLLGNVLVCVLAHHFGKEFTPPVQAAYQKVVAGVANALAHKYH
- Sequence (P69905 2-142 limits assumed): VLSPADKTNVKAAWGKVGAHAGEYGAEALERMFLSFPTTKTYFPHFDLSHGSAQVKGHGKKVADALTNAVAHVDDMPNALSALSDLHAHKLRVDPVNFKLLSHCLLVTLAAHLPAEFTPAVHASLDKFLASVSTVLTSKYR
- ASSAY EXPLANATION: Oxygen pressure at which hemoglobin is 50% saturated with oxygen in the presence of the effector.
- Type: functional
VALUE TYPE: P50e (mmHg)

MOLECULE: Cc1cc(C)cc(NC(=O)Cc2ccc(O[C@@]3(C(=O)O)CCC[C@@H]3C)cc2)c1
REPORTED MEASUREMENT: 19.9
//
MOLECULE: Cc1cc(C)cc(NC(=O)Cc2ccc(OC3(C(=O)O)CCOCC3)cc2)c1
REPORTED MEASUREMENT: 7.6

[A] Cc1cc(C)cc(NC(=O)Cc2ccc(O[C@@]3(C(=O)O)CCO[C@@H]3C)cc2)c1
[B] CCC(Oc1ccc(CC(=O)Nc2cc(C)cc(Cl)c2)cc1)C(=O)O (stereo not given)
[C] Cc1cc(C)cc(NC(=O)Cc2ccc(O[C@]3(C(=O)O)CCC[C@H]3C)cc2)c1
[D] Cc1cc(Cl)cc(NC(=O)Cc2ccc(OC(C)(C)C(=O)O)cc2)c1
Q. Order field: P50e | Direction: descending (largest first) Rank them, then answer with their labels in that order.
A. C, D, B, A
(C: 30.7 mmHg, D: 21 mmHg, B: 13.1 mmHg, A: 7.7 mmHg)

[A] Cc1cc(C)cc(NC(=O)Cc2ccc(OC3(C(=O)O)CCCC(C)C3)cc2)c1 (stereo not given)
[B] Cc1cc(C)cc(NC(=O)Cc2ccc(OC3(C(=O)O)CCCC3)cc2)c1
Q. Hey, between A and B which has a smaller measured P50e? Write down the label attached to your selection.
A. A

[P] Cc1cc(C)cc(NC(=O)Cc2ccc(O[C@]3(C(=O)O)CCO[C@H]3C)cc2)c1
[Q] Cc1cc(Cl)cc(NC(=O)Cc2ccc(OC3(C(=O)O)CCCC3C)cc2)c1 (stereo not given)
[R] Cc1cc(Cl)cc(NC(=O)Cc2ccc(OC3(C(=O)O)CCC(C)C3)cc2)c1 (stereo not given)
Q. Arrange the 3 entries by P50e so the values rise. Rank them, then answer with their labels in that order.
A. P, R, Q

[I] CCCC(C)(Oc1ccc(CC(=O)Nc2cc(C)cc(C)c2)cc1)C(=O)O (stereo not given)
[II] CCCCC(Oc1ccc(CC(=O)Nc2cc(C)cc(C)c2)cc1)C(=O)O (stereo not given)
Q. Hey, between I and II which has a smaller measured P50e? Write down the label attached to your selection.
A. I

---

- TARGET: Hemoglobin HbA (Homo sapiens) (UniProt P69905+P68871)
- ASSAY EXPLANATION: Oxygen pressure at which hemoglobin is 50% saturated with oxygen in the presence of the effector.
- Assay type: functional
VALUE TYPE: P50e (mmHg)

[a] Cc1cc(C)cc(NC(=O)Cc2ccc(OC(C)C(=O)O)cc2)c1 (single isomer, unassigned; (-))
[b] CCC(C)(Oc1ccc(CC(=O)Nc2cc(C)cc(C)c2)cc1)C(=O)O (stereo in doubt; 10)
Q. Which value of P50e is greater, the one for a or the one for b ? Write down the label attached to your selection.
A. b

[a] CC(Oc1ccc(CC(=O)Nc2ccc3c(c2)CCC3)cc1)C(=O)O (centres undefined)
[b] CCC(Oc1ccc(CC(=O)Nc2cc(C)cc(C)c2)cc1)C(=O)O (single isomer, unassigned; (+))
Q. Which value of P50e is greater, the one for a or the one for b ? Write down the label attached to your selection.
A. b

---

- TARGET: Hemoglobin HbA (Homo sapiens) (UniProt P69905+P68871)
- ASSAY EXPLANATION: Ratio of P50e to P50c (P50 control value with no effector present, 5 mmHg)
- Assay type: functional
VALUE TYPE: P50e/P50c

Worked examples, 2 compounds total:
COMPOUND: Cc1cc(C)cc(NC(=O)Cc2ccc(OC(C)C(=O)O)cc2)c1 (single isomer, unassigned; (+))
REPORTED MEASUREMENT: 2

COMPOUND: Cc1cc(C)cc(NC(=O)Cc2ccc(OC(C)(C)C(=O)O)cc2)c1
REPORTED MEASUREMENT: 4.7

[a] Cc1cc(C)cc(NC(=O)Cc2ccc(OC3(C(=O)O)CCCC(C)C3)cc2)c1 (stereo unspecified)
[b] Cc1cc(C)cc(NC(=O)Cc2ccc(OC3(C(=O)O)CCCC3C)cc2)c1 (racemic)
Q. Hey, between a and b which has a smaller measured P50e/P50c? Write down the label attached to your selection.
A. a
(a: 2.1, b: 4.3)

---

- TARGET: Hemoglobin HbA (Homo sapiens) (UniProt P69905+P68871)
- ASSAY EXPLANATION: Oxygen pressure at which hemoglobin is 50% saturated with oxygen in the presence of the effector.
- Type: functional
VALUE TYPE: P50e (mmHg)

Worked examples, 4 compounds total:
COMPOUND: CCC(C)(Oc1ccc(CC(=O)Nc2cc(C)cc(C)c2)cc1)C(=O)O (stereo in doubt; (-)-10)
TARGET: Hemoglobin HbA (Homo sapiens) (UniProt P69905+P68871)
REPORTED MEASUREMENT: 10.5
--
COMPOUND: CCC(C)(Oc1ccc(CC(=O)Nc2ccc3c(c2)CCC3)cc1)C(=O)O (configuration not stated)
TARGET: Hemoglobin HbA (Homo sapiens) (UniProt P69905+P68871)
REPORTED MEASUREMENT: 10.6
--
COMPOUND: CCC(Oc1ccc(CC(=O)Nc2ccc3c(c2)CCC3)cc1)C(=O)O (configuration not stated)
TARGET: Hemoglobin HbA (Homo sapiens) (UniProt P69905+P68871)
REPORTED MEASUREMENT: 9.1
--
COMPOUND: Cc1cc(Cl)cc(NC(=O)Cc2ccc(OC(C)C(=O)O)cc2)c1 (configuration not stated)
TARGET: Hemoglobin HbA (Homo sapiens) (UniProt P69905+P68871)
REPORTED MEASUREMENT: 9.4

[I] Cc1cc(C)cc(NC(=O)Cc2ccc(OC(C)C(=O)O)cc2)c1 (racemic)
[II] CC(C)(Oc1ccc(CC(=O)Nc2ccc3c(c2)CCC3)cc1)C(=O)O
Q. Which value of P50e is greater, the one for I or the one for II ? Write down the label attached to your selection.
A. II
